System: SK-MEL-5 melanoma
run_description: NCI tumour cell line growth inhibition, 48 h; in the data active means GI50 below about 0.43 µM; inactive means the rest
Log the outcome using a class from TRUE = active, FALSE = inactive

Record excerpt, results attached:
CN(C)c1ccc(/C=C2\N=C(c3ccccc3)N(c3cc(C(F)(F)F)ccc3Cl)C2=O)cc1 :: FALSE
O=c1c2cc(-c3ccccc3)sc2ncn1Cc1ccc(Cl)c(Cl)c1 :: FALSE
CC[C@@]1(OC(=O)CN)C(=O)OCc2c1cc1n(c2=O)Cc2c-1nc1cc3c(cc1c2CCl)OCO3 :: TRUE
O=C(Nc1ccc(F)cc1F)c1cc(Cl)ccc1O :: FALSE
C=C/C(C)=C/C[C@]1(C)[C@H](C)[C@@H](OC(=O)CCC)[C@H](O)[C@@]23C(=C[C@H](OC)C[C@@H]12)[C@@H](OC(=O)CCC)O[C@H]3OC(C)=O :: FALSE

Q. Tell me the recorded outcome of this test for `CCCCCCCCOC(=O)c1c(C)[nH]c(/C=C2\N=C(c3ccc[nH]3)C=C2OC)c1C` .
A. TRUE

Q. Assay result, entry COC(=O)c1cc2c(cc1Cl)SC1=NN(C)S(=O)N1S2(=O)=O (stereo not drawn) — outcome?
A. FALSE

Q. Record request — test call for `Cc1ccc2nc(-c3ccc(OCC(=O)N=Nc4c(O)[nH]c5ccccc45)cc3)[nH]c2c1`
A. FALSE
